Each item that follows carries a reported Mean % WT Binding.
Target under test: human CD33 F44Q (human, UniProt P20138 18-364)
Sequence (P20138 18-364 F44Q limits assumed): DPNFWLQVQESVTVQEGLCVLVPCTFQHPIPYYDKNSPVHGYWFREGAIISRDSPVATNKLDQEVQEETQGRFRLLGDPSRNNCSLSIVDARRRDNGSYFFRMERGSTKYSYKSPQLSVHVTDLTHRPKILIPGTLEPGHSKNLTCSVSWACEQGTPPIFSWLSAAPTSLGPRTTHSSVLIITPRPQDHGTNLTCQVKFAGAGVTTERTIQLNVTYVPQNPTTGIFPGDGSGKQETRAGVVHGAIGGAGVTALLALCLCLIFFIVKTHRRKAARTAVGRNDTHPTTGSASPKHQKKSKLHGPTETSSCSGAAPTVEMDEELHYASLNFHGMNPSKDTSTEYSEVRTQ
Assay protocol: flow cytometry, mutant on cells, IgG
Provide only the numeric value, understood in % WT binding.

Below: 3 binders and their reported Mean % WT Binding.
Refmab #2 (antibody, human IgG1, V domains shown, Tested in IgG format; human IgG1 Fc silent (PG-LALA)) VH: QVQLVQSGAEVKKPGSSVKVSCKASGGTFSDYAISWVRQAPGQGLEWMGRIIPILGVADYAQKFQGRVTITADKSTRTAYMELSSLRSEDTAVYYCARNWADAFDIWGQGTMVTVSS VL: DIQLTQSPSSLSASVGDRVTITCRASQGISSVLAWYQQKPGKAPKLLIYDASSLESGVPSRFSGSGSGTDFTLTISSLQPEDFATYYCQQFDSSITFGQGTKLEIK :: 0.5
Refmab #4 (antibody, human IgG1, V domains shown, Tested in IgG format; human IgG1 Fc silent (PG-LALA)) VH: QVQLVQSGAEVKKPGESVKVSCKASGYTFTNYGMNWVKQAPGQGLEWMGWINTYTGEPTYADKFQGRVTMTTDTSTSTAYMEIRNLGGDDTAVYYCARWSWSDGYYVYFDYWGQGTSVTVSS VL: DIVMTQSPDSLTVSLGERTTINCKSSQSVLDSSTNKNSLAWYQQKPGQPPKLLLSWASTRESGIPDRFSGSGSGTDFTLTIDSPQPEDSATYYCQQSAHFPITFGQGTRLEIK :: 102
Refmab #3 (antibody, human IgG1, V domains shown, Tested in IgG format; human IgG1 Fc silent (PG-LALA)) VH: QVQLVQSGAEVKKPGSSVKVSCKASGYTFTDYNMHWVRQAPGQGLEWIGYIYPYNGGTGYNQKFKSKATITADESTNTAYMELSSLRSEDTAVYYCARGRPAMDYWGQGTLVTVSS VL: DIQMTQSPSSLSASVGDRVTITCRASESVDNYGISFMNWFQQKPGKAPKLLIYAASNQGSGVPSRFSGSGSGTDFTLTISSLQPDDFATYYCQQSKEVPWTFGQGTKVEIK :: 105

# next binder below
Please report Mean % WT Binding for the following binder: Refmab #1 (antibody, human IgG1, V domains shown, Tested in IgG format; human IgG1 (Absolute Antibody hP67.6, Cat. No. Ab00283-10.0); also called hP67.6) VH: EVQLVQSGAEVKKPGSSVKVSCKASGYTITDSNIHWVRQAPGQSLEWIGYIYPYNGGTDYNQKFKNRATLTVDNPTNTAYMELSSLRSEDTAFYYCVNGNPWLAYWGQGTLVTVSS VL: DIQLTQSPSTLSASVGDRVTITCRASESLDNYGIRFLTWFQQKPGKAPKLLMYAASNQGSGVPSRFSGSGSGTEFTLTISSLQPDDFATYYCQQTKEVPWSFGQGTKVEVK
106
